These data points were gathered from the kinase profiling compilation of Christmann-Franck et al. (2016).

# measured target: MARK3 (human)
# assay procedure: radiometric filter-binding kinase assay
# measurement conditions: compound 0.1 µM
property measured: residual activity (%)
Report only the number, with the unit % understood.

> print(dat)
                                   compound  property.measured  reading
1  NC(=O)c1cc(-c2ccnc(NC3CCCCC3)c2)nc(N2CCNCC2)c1  residual activity       92
2    CCn1c(-c2nonc2N)nc2cncc(CNC3CCNCC3)c21  residual activity       88
3  Cc1cc(NC(=O)c2cccc(NC(=O)/C=C/CN(C)C)c2)ccc1Nc1nccc(-c2cccnc2)n1  residual activity       92

Now take the following molecule into account.
INPUT: Fill in reported residual activity for this entry: O=C(O)c1ccc(-c2c[nH]c3ncc(-c4ccccc4)cc23)cc1C1CCCC1
OUTPUT: 89

----------
# measured target: MST4 (human)
# assay procedure: radiometric filter-binding kinase assay
# measurement conditions: compound 10.0 µM
property measured: residual activity (%)
Reply with just the number (in %).

INPUT: Give reported residual activity value for COC(=O)/C=C/C(=O)OC
OUTPUT: 95

INPUT: Report measured residual activity; entry is Cc1cc(SCc2sc(-c3ccc(C(F)(F)F)cc3)nc2C)ccc1OCC(=O)O
OUTPUT: 83

INPUT: Identify residual activity associated with the molecule N#Cc1c(O)c2c(-c3ccc(-c4ccccc4O)cc3)csc2[nH]c1=O
OUTPUT: 74

----------
# measured target: PKN2 (human) (UniProt Q16513)
# Sequence (Q16513 whole entry, looked up): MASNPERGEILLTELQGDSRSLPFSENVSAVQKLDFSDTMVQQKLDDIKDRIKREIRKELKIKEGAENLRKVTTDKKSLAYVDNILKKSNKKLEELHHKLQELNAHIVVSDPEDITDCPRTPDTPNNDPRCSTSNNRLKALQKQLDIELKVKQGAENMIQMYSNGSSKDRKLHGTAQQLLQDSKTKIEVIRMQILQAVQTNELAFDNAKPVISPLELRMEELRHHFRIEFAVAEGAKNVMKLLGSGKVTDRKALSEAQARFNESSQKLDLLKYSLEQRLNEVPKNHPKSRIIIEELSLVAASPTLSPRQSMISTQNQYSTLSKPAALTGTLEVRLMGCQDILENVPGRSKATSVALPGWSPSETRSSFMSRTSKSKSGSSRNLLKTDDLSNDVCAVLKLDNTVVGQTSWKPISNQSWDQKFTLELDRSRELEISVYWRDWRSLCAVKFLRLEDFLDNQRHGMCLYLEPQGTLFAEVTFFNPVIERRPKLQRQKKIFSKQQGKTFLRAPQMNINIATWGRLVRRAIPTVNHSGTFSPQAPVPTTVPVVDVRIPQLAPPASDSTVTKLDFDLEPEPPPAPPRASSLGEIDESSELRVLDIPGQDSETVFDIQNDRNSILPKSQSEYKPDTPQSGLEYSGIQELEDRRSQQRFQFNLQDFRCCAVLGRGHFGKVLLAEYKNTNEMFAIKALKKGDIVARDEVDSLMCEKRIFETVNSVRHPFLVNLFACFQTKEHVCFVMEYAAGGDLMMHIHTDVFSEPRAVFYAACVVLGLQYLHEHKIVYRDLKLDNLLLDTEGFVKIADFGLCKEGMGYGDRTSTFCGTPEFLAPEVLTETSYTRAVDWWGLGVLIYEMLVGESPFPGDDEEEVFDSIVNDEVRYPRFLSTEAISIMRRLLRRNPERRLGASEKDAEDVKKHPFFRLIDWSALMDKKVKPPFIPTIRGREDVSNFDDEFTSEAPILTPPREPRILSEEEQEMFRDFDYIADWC
# assay procedure: radiometric filter-binding kinase assay
# measurement conditions: compound 1.0 µM
property measured: residual activity
Write the numeric value and append its unit.

compound	measured target	residual activity
CCn1c(-c2nonc2N)nc2cncc(CNC3CCNCC3)c21	PKN2 (human) (UniProt Q16513)	12%
CC1=C(CO)C(=O)O[C@@H]([C@@H](C)[C@H]2CC[C@H]3[C@@H]4C[C@H]5O[C@]56[C@@H](O)C=CC(=O)[C@]6(C)C4CC[C@]23C)C1 (stereo partly drawn)	PKN2 (human) (UniProt Q16513)	95%

INPUT: // fetch residual activity given entry Cc1cc(NC(=O)c2cccc(NC(=O)/C=C/CN(C)C)c2)ccc1Nc1nccc(-c2cccnc2)n1
OUTPUT: 95%

INPUT: Identify measured residual activity corresponding to c1ccc2c(-c3cnn4cc(-c5ccc(N6CCNCC6)cc5)cnc34)ccnc2c1
OUTPUT: 69%

----------
# measured target: BRSK1 (human)
# assay procedure: radiometric filter-binding kinase assay
# measurement conditions: compound 0.1 µM
property measured: residual activity (%)
# number only, unit % dropped from output

Take a look at these entries with their results.
> print(dat)
                                   molecule  unit.descriptor  reading
1    CCn1c(-c2nonc2N)nc2cncc(CNC3CCNCC3)c21                %       91
2  O=C(Nc1nc2cc(C(F)(F)F)cc(NC3CC3)n2n1)c1cccnc1                %       90
3  COc1cc(O)c2c(c1)[C@H]1OC1C[C@H](O)[C@H](O)C(=O)/C=C\C[C@H](C)OC2=O (stereo partly drawn)                %       90

INPUT: Specify reported residual activity for the molecule shown: O=C(O)c1ccc(-c2c[nH]c3ncc(-c4ccccc4)cc23)cc1C1CCCC1
OUTPUT: 84

INPUT: Fill in residual activity for record Cc1ccc(Sc2cnc(Nc3cccc(Br)n3)s2)cc1C(=O)N1CCN(C(=O)CN)CC1
OUTPUT: 82

INPUT: Read the entry NC(=O)c1cc(-c2ccnc(NC3CCCCC3)c2)nc(N2CCNCC2)c1 and write its reported residual activity.
OUTPUT: 96

INPUT: Output residual activity of Cc1cccc(-c2nn(C(=S)Nc3ccccc3)cc2-c2ccnc3ccccc23)n1
OUTPUT: 110

INPUT: Fill in residual activity for record O=C(N[C@@H](COc1ccc2[nH]c(=O)[nH]c2c1)c1ccccc1)c1cccn(Cc2ccc(F)c(F)c2)c1=O
OUTPUT: 118

INPUT: Report residual activity, nothing else, for this molecule: c1ccc2c(-c3cnn4cc(-c5ccc(N6CCNCC6)cc5)cnc34)ccnc2c1
OUTPUT: 88

INPUT: Provide measured residual activity value, entry: CNC(=O)C1[C@H]2O[C@@](C)([C@@H]1N)n1c3ccccc3c3c4c(c5c6ccccc6n2c5c31)C(=O)NC4 (stereo partly drawn)
OUTPUT: 3
